The reported measurements were obtained from patent US20030061759A1.

- Test system: female adult common house mosquitoes (Culex pipiens pallens)
- Method notes: Example 1: spontaneous volatilization efficaciousness test in 33 m^3 room (knockdown, KT50)
- Assay type: in vivo
- Condition: elapsed time 168 hr
- Source text: Using sample chemicals A, B and C screened out by the preliminary tests, the efficaciousness of each of them when allowed to volatilize spontaneously was compared with that of transfluthrin when allowed to volatilize spontaneously. Sample Preparations (Chemicals and Their Carriers According to the Present Invention): […]
Quantity measured: KT50 (min)
Could you give me the number in min? Just the number is fine.

Some solved entries appear below for comparison.
- CC1(C)[C@H](C=C(Cl)Cl)[C@H]1C(=O)OCc1c(F)c(F)cc(F)c1F [Transfluthrin, reference compound]: 8.73
- C#CC(OC(=O)C1C(C=C(Cl)Cl)C1(C)C)C(F)=CCC (stereo not shown): 7.53

Dear colleague, I am looking for the recorded KT50 of the following compound: CC=CC1C(C(=O)OCc2c(F)c(F)c(COC)c(F)c2F)C1(C)C (stereo not shown)
4.52

What would you report for Cc1c(F)c(F)c(COC(=O)C2C(C=C(F)Cl)C2(C)C)c(F)c1F (stereo not shown) ?
7.53
